B1: HDAC6 (parent)
chain: DLMETTQYMNEGELRVLADTYDSV

- Variants of: B1
- assay: protein stability index of a GFP-peptide fusion (GPS, HEK-293T) (PSI 1-6); higher = more stable;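 note: lentivirally expressed fusions sorted by FACS into six bins by GFP to DsRed ratio, PSI derived from sequencing read proportions per bin multiplied by bin number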
- cond: c terminus: a fixed tail appended
value_type: protein stability index
Write the value as a bare number.

Before answering, review these 2 worked examples.
M3W; 2
R15H; 2.03

Now turn to the next variant.
Form field protein stability index, entry `S23E` : 1.97
